# System Name: AGO2 L192P (Homo sapiens, UniProt Q9UKV8 1-859, L192P;S387D;S824A;S828D;S831D;S834A)
# Sequence (Q9UKV8 whole entry L192P/S387D/S824A/S828D/S831D/S834A): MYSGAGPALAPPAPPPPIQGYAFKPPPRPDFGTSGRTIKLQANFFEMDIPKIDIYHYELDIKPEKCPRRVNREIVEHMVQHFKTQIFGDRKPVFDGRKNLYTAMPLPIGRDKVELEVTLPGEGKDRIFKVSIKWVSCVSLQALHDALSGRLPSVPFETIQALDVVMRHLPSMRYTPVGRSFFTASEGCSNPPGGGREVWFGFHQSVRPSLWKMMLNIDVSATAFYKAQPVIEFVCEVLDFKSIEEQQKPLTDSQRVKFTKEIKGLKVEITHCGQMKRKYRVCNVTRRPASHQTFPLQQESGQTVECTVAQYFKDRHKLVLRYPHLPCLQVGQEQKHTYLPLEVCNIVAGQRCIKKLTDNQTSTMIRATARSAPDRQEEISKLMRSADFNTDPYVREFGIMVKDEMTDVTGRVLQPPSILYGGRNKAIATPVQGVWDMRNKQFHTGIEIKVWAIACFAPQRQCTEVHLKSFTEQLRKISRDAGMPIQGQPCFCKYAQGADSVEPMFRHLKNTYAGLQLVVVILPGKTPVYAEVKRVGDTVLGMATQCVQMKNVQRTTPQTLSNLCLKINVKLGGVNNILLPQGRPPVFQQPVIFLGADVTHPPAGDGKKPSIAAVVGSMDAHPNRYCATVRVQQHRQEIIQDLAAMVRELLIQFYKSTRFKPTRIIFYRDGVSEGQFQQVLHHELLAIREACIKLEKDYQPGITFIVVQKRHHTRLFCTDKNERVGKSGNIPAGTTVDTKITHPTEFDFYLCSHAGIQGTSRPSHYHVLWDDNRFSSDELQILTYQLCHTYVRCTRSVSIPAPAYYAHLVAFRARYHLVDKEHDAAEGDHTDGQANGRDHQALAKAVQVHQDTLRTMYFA
# Protocol Notes: RNA Bind-n-Seq (nitrocellulose filter binding and sequencing); miR-122 guide loaded in AGO2; 60 min incubation; 30 mM Tris pH 8.0, 100 mM potassium acetate, 2 mM magnesium acetate, 0.5 mM TCEP, 0.005% NP-40, 0.01 mg/ml yeast tRNA; 3 nM AGO2-miR-122, 100 nM RNA library; 60; high values mean tight binding
# Experimental Conditions: protein: recombinant; tags: His6 (N-terminal, pFastBac HTA)
Parameter Measured: binding signal

Q: Consider the binder GCATTCCA (ssRNA, constant regions annealed to DNA blockers; guide miR-122 5' phosphate) RNA 1: GAGUUCUACAGUCCGACGAUCCCAACGCAUUCCACACCUGGAAUUCUCGGGUGCCAA RNA 2: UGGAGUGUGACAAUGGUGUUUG DNA 1: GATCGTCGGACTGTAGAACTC DNA 2: TTGGCACCCGAGAATTCCA and give its recorded binding signal.
A: 0.661 fold enrichment over input

Q: Consider the binder GTATTCCG (ssRNA, constant regions annealed to DNA blockers; guide miR-122 5' phosphate) RNA 1: GAGUUCUACAGUCCGACGAUCCCAACGUAUUCCGCACCUGGAAUUCUCGGGUGCCAA RNA 2: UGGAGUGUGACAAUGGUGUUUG DNA 1: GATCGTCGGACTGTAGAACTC DNA 2: TTGGCACCCGAGAATTCCA and give its recorded binding signal.
A: 0.43 fold enrichment over input

Q: Consider the binder GTACCTCG (ssRNA, constant regions annealed to DNA blockers; guide miR-122 5' phosphate) RNA 1: GAGUUCUACAGUCCGACGAUCCCAACGUACCUCGCACCUGGAAUUCUCGGGUGCCAA RNA 2: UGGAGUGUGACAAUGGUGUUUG DNA 1: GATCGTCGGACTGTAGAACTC DNA 2: TTGGCACCCGAGAATTCCA and give its recorded binding signal.
A: 0.347 fold enrichment over input

Q: Consider the binder GTGTTCCG (ssRNA, constant regions annealed to DNA blockers; guide miR-122 5' phosphate) RNA 1: GAGUUCUACAGUCCGACGAUCCCAACGUGUUCCGCACCUGGAAUUCUCGGGUGCCAA RNA 2: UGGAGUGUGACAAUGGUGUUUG DNA 1: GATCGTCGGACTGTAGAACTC DNA 2: TTGGCACCCGAGAATTCCA and give its recorded binding signal.
A: 0.408 fold enrichment over input

Q: Consider the binder ACACTTCG (ssRNA, constant regions annealed to DNA blockers; guide miR-122 5' phosphate) RNA 1: GAGUUCUACAGUCCGACGAUCCCAACACACUUCGCACCUGGAAUUCUCGGGUGCCAA RNA 2: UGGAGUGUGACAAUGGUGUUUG DNA 1: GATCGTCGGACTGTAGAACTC DNA 2: TTGGCACCCGAGAATTCCA and give its recorded binding signal.
A: 0.433 fold enrichment over input

Q: Consider the binder ACGCTTCG (ssRNA, constant regions annealed to DNA blockers; guide miR-122 5' phosphate) RNA 1: GAGUUCUACAGUCCGACGAUCCCAACACGCUUCGCACCUGGAAUUCUCGGGUGCCAA RNA 2: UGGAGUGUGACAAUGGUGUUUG DNA 1: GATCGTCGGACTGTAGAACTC DNA 2: TTGGCACCCGAGAATTCCA and give its recorded binding signal.
A: 0.346 fold enrichment over input

Q: Consider the binder ACGCCCTG (ssRNA, constant regions annealed to DNA blockers; guide miR-122 5' phosphate) RNA 1: GAGUUCUACAGUCCGACGAUCCCAACACGCCCUGCACCUGGAAUUCUCGGGUGCCAA RNA 2: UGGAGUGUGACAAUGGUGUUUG DNA 1: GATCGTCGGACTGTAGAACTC DNA 2: TTGGCACCCGAGAATTCCA and give its recorded binding signal.
A: 0.4 fold enrichment over input

Q: Consider the binder GCGTCTCA (ssRNA, constant regions annealed to DNA blockers; guide miR-122 5' phosphate) RNA 1: GAGUUCUACAGUCCGACGAUCCCAACGCGUCUCACACCUGGAAUUCUCGGGUGCCAA RNA 2: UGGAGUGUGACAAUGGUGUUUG DNA 1: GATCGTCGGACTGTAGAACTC DNA 2: TTGGCACCCGAGAATTCCA and give its recorded binding signal.
A: 0.529 fold enrichment over input

Q: Consider the binder GTACCTTG (ssRNA, constant regions annealed to DNA blockers; guide miR-122 5' phosphate) RNA 1: GAGUUCUACAGUCCGACGAUCCCAACGUACCUUGCACCUGGAAUUCUCGGGUGCCAA RNA 2: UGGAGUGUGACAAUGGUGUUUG DNA 1: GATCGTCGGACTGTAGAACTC DNA 2: TTGGCACCCGAGAATTCCA and give its recorded binding signal.
A: 0.347 fold enrichment over input

Q: Consider the binder ACATCTTG (ssRNA, constant regions annealed to DNA blockers; guide miR-122 5' phosphate) RNA 1: GAGUUCUACAGUCCGACGAUCCCAACACAUCUUGCACCUGGAAUUCUCGGGUGCCAA RNA 2: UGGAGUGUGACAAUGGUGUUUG DNA 1: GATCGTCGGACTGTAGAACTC DNA 2: TTGGCACCCGAGAATTCCA and give its recorded binding signal.
A: 0.386 fold enrichment over input

Q: Consider the binder GCGTTCTG (ssRNA, constant regions annealed to DNA blockers; guide miR-122 5' phosphate) RNA 1: GAGUUCUACAGUCCGACGAUCCCAACGCGUUCUGCACCUGGAAUUCUCGGGUGCCAA RNA 2: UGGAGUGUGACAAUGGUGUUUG DNA 1: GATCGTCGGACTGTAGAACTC DNA 2: TTGGCACCCGAGAATTCCA and give its recorded binding signal.
A: 0.348 fold enrichment over input

Q: Consider the binder GCATCCTG (ssRNA, constant regions annealed to DNA blockers; guide miR-122 5' phosphate) RNA 1: GAGUUCUACAGUCCGACGAUCCCAACGCAUCCUGCACCUGGAAUUCUCGGGUGCCAA RNA 2: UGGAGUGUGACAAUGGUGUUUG DNA 1: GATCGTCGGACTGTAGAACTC DNA 2: TTGGCACCCGAGAATTCCA and give its recorded binding signal.
A: 0.336 fold enrichment over input

Q: Consider the binder ATATTTCG (ssRNA, constant regions annealed to DNA blockers; guide miR-122 5' phosphate) RNA 1: GAGUUCUACAGUCCGACGAUCCCAACAUAUUUCGCACCUGGAAUUCUCGGGUGCCAA RNA 2: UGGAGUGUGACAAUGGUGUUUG DNA 1: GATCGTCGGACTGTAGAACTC DNA 2: TTGGCACCCGAGAATTCCA and give its recorded binding signal.
A: 0.414 fold enrichment over input

Q: Consider the binder GCGCCTCG (ssRNA, constant regions annealed to DNA blockers; guide miR-122 5' phosphate) RNA 1: GAGUUCUACAGUCCGACGAUCCCAACGCGCCUCGCACCUGGAAUUCUCGGGUGCCAA RNA 2: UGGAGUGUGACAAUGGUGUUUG DNA 1: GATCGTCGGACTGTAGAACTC DNA 2: TTGGCACCCGAGAATTCCA and give its recorded binding signal.
A: 0.37 fold enrichment over input

Q: Consider the binder GCATTCCG (ssRNA, constant regions annealed to DNA blockers; guide miR-122 5' phosphate) RNA 1: GAGUUCUACAGUCCGACGAUCCCAACGCAUUCCGCACCUGGAAUUCUCGGGUGCCAA RNA 2: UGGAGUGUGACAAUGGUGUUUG DNA 1: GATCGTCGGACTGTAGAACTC DNA 2: TTGGCACCCGAGAATTCCA and give its recorded binding signal.
A: 0.436 fold enrichment over input
